Please go through the items and note down their pKd.
Molecular target: T1, RBM15 RRM3 (UniProt Q96T37 455-529)
T1 sequence: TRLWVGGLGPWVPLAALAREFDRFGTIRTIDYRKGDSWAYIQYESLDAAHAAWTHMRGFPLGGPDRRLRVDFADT
Test: filter binding
pKd: −log10 of the molar value.

Short answer for GGCCAACACUCUGGCCCAUCGGGGUGACGGCC (structured_RNA) [XIST A-repeat stem-loop (32nt)] : pKd was ~7.00

Short answer for GGUUCUUGAAAAGAGGACC (structured_RNA) [FIRRE RRD stem-loop (19nt)] : pKd was ~7.00
